Each recorded value in this set is attributed to patent US11046697B2.

# Test system: KM12 wild type colon carcinoma cell line harboring the TPM3-NTRK1 fusion protein
# assay.text: NTRK wild type cellular assay (CellTiter-Glo growth inhibition)
# Format: cell-based
# condition.set: Homo sapiens, KM12, 72 h, 72 hr, CellTiter-Glo; read-out: KM12 (WT) IC50
property.label: IC50

# molecule, val
records = [
    ("O=C(c1n[nH]c2ncnc(N[C@@H]3COC[C@@H](O)[C@H]3O)c12)N1C[C@@H](F)C[C@@H]1c1cc(F)ccc1OC(F)(F)F [Compound 244]", "< 10 nM"),
    ("COc1ccc(F)cc1CNC(=O)c1n[nH]c2ncnc(N[C@@H]3COCC[C@H]3O)c12 [Compound 24]", "100 to 1000 nM"),
    ("O=C(c1n[nH]c2ncnc(N[C@@H]3CN(C4COC4)C[C@H]3O)c12)N1C[C@@H](F)C[C@@H]1c1cc(F)ccc1F [Compound 229]", "< 10 nM"),
    ("COc1ncc(F)cc1[C@H]1C[C@H](F)CN1C(=O)c1n[nH]c2ncnc(N[C@@H]3CCOC[C@H]3O)c12 [Compound 190]", "10 to 100 nM"),
    ("CN(Cc1cc(F)cc(F)c1F)C(=O)c1n[nH]c2ncnc(N[C@@H]3CC[C@@H](O)[C@H]3O)c12 [Compound 63]", "10 to 100 nM"),
    ("O=C(c1n[nH]c2ncnc(N[C@@H]3COC[C@@H](O)[C@H]3O)c12)N1C[C@@H](F)C[C@@H]1c1cc(F)cc(F)c1 [Compound 197]", "10 to 100 nM"),
    ("O=C(NCc1cc(F)ccc1F)c1n[nH]c2ncnc(N[C@@H]3C[C@H]4C[C@H]4[C@H]3O)c12 [Compound 4]", "> 1000 nM"),
    ("COc1cc(F)cc(CN(C)C(=O)c2n[nH]c3ncnc(N[C@@H]4CC[C@@H](O)[C@H]4O)c23)c1 [Compound 48]", "10 to 100 nM"),
    ("O=C(c1n[nH]c2ncnc(N[C@@H]3C[C@@H](C(F)F)C[C@H]3O)c12)N1C[C@@H](F)C[C@@H]1c1cncc(F)c1 [Compound 203]", "< 10 nM"),
    ("CC(C)(O)[C@H]1C[C@@H](O)[C@H](Nc2ncnc3[nH]nc(C(=O)N4C[C@@H](F)C[C@@H]4c4cc(F)ccc4F)c23)C1 [Compound 232]", "< 10 nM"),
    ("CN(Cc1cc(Cl)ccc1F)C(=O)c1n[nH]c2ncnc(N[C@@H]3COC[C@@H](O)[C@H]3O)c12 [Compound 163]", "10 to 100 nM"),
    ("O=C(c1n[nH]c2ncnc(N[C@H]3[C@H](O)[C@H](O)[C@@H]4C[C@@H]43)c12)N1C[C@@H](F)C[C@@H]1c1cc(F)ccc1Cl [Compound 213]", "< 10 nM"),
    ("O=C(c1n[nH]c2ncnc(N[C@@H]3COCC[C@H]3O)c12)N1C[C@@H](F)C[C@@H]1c1cc(F)ccc1F [Compound 92]", "< 10 nM"),
    ("O=C(c1n[nH]c2ncnc(N[C@@H]3CC[C@@H](O)[C@H]3O)c12)N1C[C@@H](F)C[C@@H]1c1cc(F)cc(F)c1 [Compound 173]", "< 10 nM"),
    ("O=C(c1n[nH]c2ncnc(N[C@@H]3CCC[C@@H](O)[C@H]3O)c12)N1C[C@@H](F)C[C@@H]1c1cc(F)cc(F)c1F [Compound 224]", "< 10 nM"),
    ("O=C(N[C@@H](c1cc(F)ccc1F)C(F)(F)F)c1n[nH]c2ncnc(N[C@@H]3COCC[C@H]3O)c12 [Compound 103]", "> 1000 nM"),
    ("CS(=O)(=O)[C@H]1C[C@@H](O)[C@H](Nc2ncnc3[nH]nc(C(=O)NCc4cc(F)ccc4F)c23)C1 [Compound 97]", "10 to 100 nM"),
    ("O=C(NCc1cc(F)ccc1F)c1n[nH]c2ncnc(N[C@@H]3CC[C@@H](F)[C@H]3O)c12 (relative stereo) [Compound 19]", "> 1000 nM"),
    ("O=C(c1n[nH]c2ncnc(N[C@@H]3CCOC[C@H]3O)c12)N1C[C@@H](F)C[C@@H]1c1cncc(F)c1 [Compound 73]", "< 10 nM"),
    ("N#Cc1cc(F)cc(CNC(=O)c2n[nH]c3ncnc(N[C@@H]4CC[C@@H](O)[C@H]4O)c23)c1 [Compound 22]", "> 1000 nM"),
    ("O=C(NCc1cc(F)ccc1F)c1n[nH]c2ncnc(N[C@@H]3[C@H]4C[C@H]4C[C@H]3O)c12 [Compound 3]", "> 1000 nM"),
    ("COc1ccc(F)cc1CNC(=O)c1n[nH]c2ncnc(N[C@@H]3CC[C@@H](O)[C@H]3O)c12 [Compound 117]", "100 to 1000 nM"),
]

====

# target.of.assay: wild type NTRK1 enzyme (Homo sapiens, UniProt P04629)
# Construct: purchased BPS Bioscience 40280
# Sequence (P04629 440-796 limits assumed): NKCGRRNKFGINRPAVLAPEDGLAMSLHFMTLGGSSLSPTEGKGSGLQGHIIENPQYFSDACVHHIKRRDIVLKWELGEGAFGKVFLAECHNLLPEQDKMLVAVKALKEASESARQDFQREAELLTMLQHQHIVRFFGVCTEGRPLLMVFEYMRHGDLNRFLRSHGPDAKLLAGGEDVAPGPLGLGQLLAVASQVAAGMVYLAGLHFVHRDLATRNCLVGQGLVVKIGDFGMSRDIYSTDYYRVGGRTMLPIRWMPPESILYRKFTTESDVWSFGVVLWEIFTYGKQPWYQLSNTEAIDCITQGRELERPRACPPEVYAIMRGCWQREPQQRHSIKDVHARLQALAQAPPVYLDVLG
# assay.text: NTRK1 Wild Type Assay at 1 mM ATP
# Assay type: biochemical
# condition.set: 1 mM ATP; read-out: Enz NTRK1 IC50
Measured IC50 of individual entries

# compound, IC50
data = [
    ("CN(Cc1ccccc1)C(=O)c1n[nH]c2ncnc(N[C@@H]3CC[C@@H](O)[C@H]3O)c12 [Compound 131]", "100 to 1000 nM"),
    ("CN(Cc1cc(F)ccc1OC(F)(F)F)C(=O)c1n[nH]c2ncnc(NC3COCC(O)C3O)c12 (stereo not shown) [Compound 228]", "10 to 100 nM"),
    ("CN(Cc1cc(F)cn(C)c1=O)C(=O)c1n[nH]c2ncnc(N[C@@H]3CC[C@@H](O)[C@H]3O)c12 [Compound 147]", "10 to 100 nM"),
    ("O=C(c1n[nH]c2ncnc(NC3CCCC(O)C3O)c12)N1CC(F)CC1c1cc(F)ccc1OC(F)(F)F (stereo not shown) [Compound 243]", "< 10 nM"),
    ("CN(Cc1cc(F)ccc1Cl)C(=O)c1n[nH]c2ncnc(N[C@@H]3COC[C@@H](O)[C@H]3O)c12 [Compound 162]", "< 10 nM"),
    ("O=C(c1n[nH]c2ncnc(N[C@@H]3C=C[C@@H](O)[C@H]3O)c12)N1C[C@@H](F)C[C@@H]1c1cccc(F)c1F [Compound 172]", "< 10 nM"),
    ("O=C(NCc1cc(F)ccc1F)c1n[nH]c2ncnc(N[C@@H]3CCC[C@H]3O)c12 [Compound 1]", "10 to 100 nM"),
]

====

# Tested on: KM12 wild type colon carcinoma cell line harboring the TPM3-NTRK1 fusion protein
# assay.text: NTRK wild type cellular assay (CellTiter-Glo growth inhibition)
# Type: cell-based
# condition.set: Homo sapiens, KM12, 72 h, 72 hr, CellTiter-Glo; read-out: KM12 (WT) IC50
pIC50: −log10 of the molar value.
Measured pIC50 of individual entries

# compound, target.of.assay, pIC50
records = [
    ("O=C(c1n[nH]c2ncnc(NC3CC(F)CC3O)c12)N1CC(F)CC1c1cc(F)ccc1F (stereo not shown)", "KM12 wild type colon carcinoma cell line harboring the TPM3-NTRK1 fusion protein", "> 8.00"),
    ("O=C(c1n[nH]c2ncnc(N[C@@H]3COC[C@H]3O)c12)N1C[C@@H](F)C[C@@H]1c1cc(F)ccc1F", "KM12 wild type colon carcinoma cell line harboring the TPM3-NTRK1 fusion protein", "> 8.00"),
    ("N#C[C@H]1C[C@@H](O)[C@H](Nc2ncnc3[nH]nc(C(=O)N4C[C@@H](F)C[C@@H]4c4cc(F)cc(Cl)c4)c23)C1", "KM12 wild type colon carcinoma cell line harboring the TPM3-NTRK1 fusion protein", "> 8.00"),
    ("C[C@@H](NC(=O)c1n[nH]c2ncnc(N[C@@H]3COCC[C@H]3O)c12)c1cc(F)ccc1F", "KM12 wild type colon carcinoma cell line harboring the TPM3-NTRK1 fusion protein", "7.00 to 8.00"),
    ("O=C(c1n[nH]c2ncnc(N[C@@H]3C[C@@H](C(F)F)[C@@H](O)[C@H]3O)c12)N1C[C@@H](F)C[C@@H]1c1cc(F)ccc1F", "KM12 wild type colon carcinoma cell line harboring the TPM3-NTRK1 fusion protein", "> 8.00"),
    ("CN(Cc1cc(F)cnc1Cl)C(=O)c1n[nH]c2ncnc(N[C@H]3[C@H](O)[C@H](O)[C@@H]4C[C@@H]43)c12", "KM12 wild type colon carcinoma cell line harboring the TPM3-NTRK1 fusion protein", "7.00 to 8.00"),
    ("CN(Cc1cc(F)cn(C)c1=O)C(=O)c1n[nH]c2ncnc(N[C@@H]3CC[C@@H](O)[C@H]3O)c12", "KM12 wild type colon carcinoma cell line harboring the TPM3-NTRK1 fusion protein", "6.00 to 7.00"),
]
